# assay.target: PTK6 (human) (UniProt Q13882)
# Sequence (Q13882 whole entry, looked up): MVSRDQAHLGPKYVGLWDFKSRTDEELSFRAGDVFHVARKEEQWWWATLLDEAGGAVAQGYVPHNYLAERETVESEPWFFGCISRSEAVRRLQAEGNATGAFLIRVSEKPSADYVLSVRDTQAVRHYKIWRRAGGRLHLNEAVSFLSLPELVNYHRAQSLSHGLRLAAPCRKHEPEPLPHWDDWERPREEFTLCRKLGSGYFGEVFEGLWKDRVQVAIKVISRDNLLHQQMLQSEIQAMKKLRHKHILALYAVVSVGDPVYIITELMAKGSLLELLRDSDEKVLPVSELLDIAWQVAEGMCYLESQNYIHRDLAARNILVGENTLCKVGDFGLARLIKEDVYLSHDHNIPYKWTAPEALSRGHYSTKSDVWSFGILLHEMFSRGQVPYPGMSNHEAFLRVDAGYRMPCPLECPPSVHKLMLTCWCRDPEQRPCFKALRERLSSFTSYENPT
# assay.summary: KINOMEscan competition binding
# assay.setup: compound 10.0 µM
kinase still bound, per cent of control values for the compounds below.
endpoint.label: kinase still bound, per cent of control

> print(dat)
                            smiles.notation                   assay.target                           endpoint.label  result
1  Cc1cnc(-c2cnc(NCCNc3ccc(C#N)cn3)nc2-c2ccc(Cl)cc2Cl)[nH]1  PTK6 (human) (UniProt Q13882)  kinase still bound, per cent of control    100%
2  COc1ccc(CNC(=O)Nc2ncc([N+](=O)[O-])s2)cc1  PTK6 (human) (UniProt Q13882)  kinase still bound, per cent of control     92%
3  O=C1Nc2cc(Br)ccc2/C1=C1/Nc2ccccc2/C1=N\O  PTK6 (human) (UniProt Q13882)  kinase still bound, per cent of control     84%
4  Cn1cc(C2=C(c3ccc(Cl)cc3Cl)C(=O)NC2=O)c2ccccc21  PTK6 (human) (UniProt Q13882)  kinase still bound, per cent of control    100%

Ref: the kinase profiling compilation of Christmann-Franck et al. (2016)
